- system.tested: UniProt:P04150
- Sequence (P04150 1-777): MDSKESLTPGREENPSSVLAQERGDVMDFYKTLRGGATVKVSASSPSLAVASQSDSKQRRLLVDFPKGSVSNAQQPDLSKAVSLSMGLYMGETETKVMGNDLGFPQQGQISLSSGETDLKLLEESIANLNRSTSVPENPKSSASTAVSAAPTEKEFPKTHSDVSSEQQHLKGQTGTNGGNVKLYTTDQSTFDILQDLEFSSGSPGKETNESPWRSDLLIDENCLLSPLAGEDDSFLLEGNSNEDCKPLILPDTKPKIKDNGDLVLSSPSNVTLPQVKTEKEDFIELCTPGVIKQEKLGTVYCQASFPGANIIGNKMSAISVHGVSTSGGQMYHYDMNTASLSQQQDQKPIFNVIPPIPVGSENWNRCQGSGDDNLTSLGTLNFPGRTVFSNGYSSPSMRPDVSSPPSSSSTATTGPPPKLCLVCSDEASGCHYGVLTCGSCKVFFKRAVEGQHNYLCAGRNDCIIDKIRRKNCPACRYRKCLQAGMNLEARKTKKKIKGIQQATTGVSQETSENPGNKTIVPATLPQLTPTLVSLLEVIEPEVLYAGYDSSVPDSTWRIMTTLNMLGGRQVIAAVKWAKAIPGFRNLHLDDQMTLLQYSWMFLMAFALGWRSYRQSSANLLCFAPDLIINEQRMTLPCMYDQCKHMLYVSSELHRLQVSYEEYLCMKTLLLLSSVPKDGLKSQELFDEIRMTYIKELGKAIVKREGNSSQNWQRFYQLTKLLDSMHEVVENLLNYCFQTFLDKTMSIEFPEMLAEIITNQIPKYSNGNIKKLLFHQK
parameter: pIC50
One number for each entry, as −log10 of the molar value.

Param item = O=c1cc(-c2ccccc2)oc2cc(O)c(O)c(O)c12 [baicalein] ; retrieve measured pIC50.
4.72
